system: DMS 114 small cell lung; assay: NCI tumour cell line growth inhibition, 48 h
TGI values for the compounds below.

{"Compound": "CCOC(=O)c1cc2c(OCc3ccccc3)c(OC)cc3c2c(n1)N(c1ccc(OC)cc1)C(C)C3 (stereo not drawn)", "TGI": "> 50 µM"}
{"Compound": "CC(C)(C)C(=O)OCC1OC(N=[N+]=[N-])C(OC(=O)C(C)(C)C)C(OC(=O)C(C)(C)C)C1OC(=O)C(C)(C)C (stereo not drawn)", "TGI": "> 100 µM"}
{"Compound": "Cc1ccc(N(O)C(C)(C)C)cc1", "TGI": "> 100 µM"}

* * *

system: KM20L2 colon; test: NCI tumour cell line growth inhibition, 48 h
TGI values for the molecules below.
Property measured: TGI

{"Molecule": "COc1ccc(OC(C(=O)O)C(C)C)c2c1CCCC2=O (configuration not stated)", "Property measured": "TGI", "Obs value": "> 100 µM"}
{"Molecule": "COc1ccc2c(c1)OCCc1cn[nH]c1-2", "Property measured": "TGI", "Obs value": "> 100 µM"}
{"Molecule": "Cc1c(C(=O)/C=C/C=C/c2ccccc2)[n+](=O)c2ccccc2n1[O-]", "Property measured": "TGI", "Obs value": "> 100 µM"}
{"Molecule": "O=c1nc(-c2ccccc2)cc(CC(O)c2ccc(Cl)c(Cl)c2)[nH]1 (configuration not stated)", "Property measured": "TGI", "Obs value": "> 100 µM"}
{"Molecule": "CCOC(=O)CCC1(C(=O)OCC)CCCC1=O (configuration not stated)", "Property measured": "TGI", "Obs value": "> 100 µM"}
{"Molecule": "CCOc1ccc(/C(C=O)=C(\\Cl)c2ccc(OC)cc2)cc1", "Property measured": "TGI", "Obs value": "> 100 µM"}
{"Molecule": "COc1ccc2c(c1)CC[C@@H]1C2CC[C@](C)(C#N)C1CC#N (some centres not stated)", "Property measured": "TGI", "Obs value": "> 100 µM"}
{"Molecule": "Cc1ccc(N(O)C(C)(C)C)cc1", "Property measured": "TGI", "Obs value": "> 100 µM"}
{"Molecule": "[O-]c1ccccc1C=Nc1ccc2c(c1)CCC2.[O-]c1ccccc1C=Nc1ccc2c(c1)CCC2.[O]=[U+2]=[O]", "Property measured": "TGI", "Obs value": "> 100 µM"}
{"Molecule": "COc1ccc2nc3c(c(NCCCN(C)C)c2c1)CCCC3", "Property measured": "TGI", "Obs value": "22.4 µM"}
{"Molecule": "CCC(COC(=O)CC[C@@H](NC(=O)C(C)NC(=O)C(C)OC1C(O)C(CO)OC(OCc2ccccc2)C1NC(C)=O)C(N)=O)NC1c2ccccc2Nc2cccc([N+](=O)[O-])c21 (some centres not stated)", "Property measured": "TGI", "Obs value": "> 100 µM"}
{"Molecule": "CCOC(=O)CN(Cn1cncn1)Cn1cncn1", "Property measured": "TGI", "Obs value": "51.7 µM"}
{"Molecule": "O=NN(CCF)C(=O)NC1CC2CCC1C2 (configuration not stated)", "Property measured": "TGI", "Obs value": "> 100 µM"}
{"Molecule": "CC(=O)NC(CCCCN)C(=O)NCc1ccccc1 (configuration not stated)", "Property measured": "TGI", "Obs value": "> 100 µM"}
{"Molecule": "Cc1c2c(cc3c1C(=O)C(=O)C1=C3OC[C@@H]1C)C(C)(C)CCC2", "Property measured": "TGI", "Obs value": "44.5 µM"}
{"Molecule": "O=c1cccccc1NCCCCCCCNc1cccccc1=O", "Property measured": "TGI", "Obs value": "> 100 µM"}
{"Molecule": "C=C1CC2CC[C@@]34CC5O[C@@H]6C(O[C@H]7CC[C@H](CC(=O)OC8C(C)C9OC%10C[C@]%11(C[C@@H]%12O[C@]%13(CC(C)[C@@H]%14O[C@H](C(O)CC(O)CO)C[C@@H]%14O%13)CC(C)[C@@H]%12O%11)OC%10CC9O[C@H]8C[C@H]8OC(CC[C@@H]1O2)C[C@@H](C)C8=C)OC7[C@@H]6O3)[C@H]5O4 (some centres not stated)", "Property measured": "TGI", "Obs value": "0.00167 µM"}

Recorded values, source PubChem BioAssay (NCI).
